# target_system: T1, AGS73.15 (MS497)
# T1 construct: It carries a human IgG Fc (detected with anti-human IgG Fc)
# T1 sequence (VH, as listed by the source, chain 1 of 2): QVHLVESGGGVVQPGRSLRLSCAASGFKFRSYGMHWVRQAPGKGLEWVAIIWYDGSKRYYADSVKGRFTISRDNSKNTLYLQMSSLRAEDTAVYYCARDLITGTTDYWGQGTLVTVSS
# T1 sequence (VL, as listed by the source, chain 2 of 2): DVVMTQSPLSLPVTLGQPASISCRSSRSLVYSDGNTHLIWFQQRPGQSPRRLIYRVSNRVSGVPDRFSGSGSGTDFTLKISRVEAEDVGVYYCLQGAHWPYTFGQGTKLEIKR
# protocol_details: flow cytometry, blocking of AGS73.15 (200 ng/ml) binding to CD3ε on human T cells; AGS73.15 detected with anti-human IgG Fc-PE
endpoint_name: IC50 (read off the curve)

IC50 (read off the curve) for 6d59.id.1b67.1 (antibody, V domains shown, Anti-idiotypic antibody against 6d59) VH: QVTLKESGPGILKPSQTLSLTCSFSGFSLSTSGMGVGWIRQPSGKGLEWLAHIWWDDDKFYKPSLKNRLTISKDTSRNQVFLKITSVDTADAATYFCVRRSAYEAFTLDYWGQGTSVTVSS VL: DIMLTQSPASLAVSLGQRATISCKASQSVDYDGNGYLNWYQQKPGQPPKLLIYAASNLESGIPARFSGSGSGTDFTLNIHPVEEEDVATYYCQQSSEDPFTFGSGTKLEIKR is ~0.08 µg/mL
